Each recorded value in this set is attributed to patent US20240016781A1.

# METHOD NOTES: PK of voruciclib, daily dosing continuously (Table 4)
# Assay type: in vivo
# RUN PARAMETERS: human, plasma, oral, 350 mg, Day 15, daily dosing continuously, mean; read-out: AUC0-24
READOUT: AUC(0-t) (ng·h/mL)
Field: numeric (ng·h/mL). Do not append units.

Please look at this molecule and report its AUC(0-t): `CN1CC[C@@H](c2c(O)cc(O)c3c(=O)cc(-c4ccc(C(F)(F)F)cc4Cl)oc23)[C@@H]1CO`
26700

---

# METHOD NOTES: PK of voruciclib, 2 weeks of daily dosing followed by 1 week without dosing in a 21-day cycle (Table 3)
# Assay type: in vivo, human
# RUN PARAMETERS: human, plasma, oral, 150 mg, Day 1, 2 weeks daily dosing/1 week off, median
READOUT: Tmax
Record the result as a number with its unit.

// fetch Tmax given entry CN1CC[C@@H](c2c(O)cc(O)c3c(=O)cc(-c4ccc(C(F)(F)F)cc4Cl)oc23)[C@@H]1CO [Voruciclib]
4 h
